- Assay Summary: Human pregnane X receptor (PXR) small molecule agonists, qHTS cell viability counter screen (AID 1346977); further: on the % scale 0 is the no-effect control and ±100 the full control effect; nearly all actives have a fitted effect of over 50% in size
- Protocol Conditions: PXR-Luc HepG2 viability, CellTiter-Fluor, 24 h; series mostly up to 92.4 µM
- Excerpt: U.S. Tox21 Program National Center for Advancing Translational Sciences [NCATS] NIH Chemical Genomics Center [NCGC] U.S. Environmental Protection Agency [EPA] National Institutes of Environmental Health Sciences [NIEHS] National Toxicology Program [NTP] U.S. Food and Drug Administration [FDA] […]
Results filed as inconclusive are left out. Calls of active or inactive are those of the source. The call rests on the fitted dose curve; in most records, active means well fitted cell-killing curve with a large enough effect in the repeat runs; inconclusive means weak or mixed curves, or effect the other way; inactive means flat fitted curve, though single readings scatter.
Experimental Readout: activity change, negative = cytotoxicity

INSERT INTO assay_data (sample_smiles, measured_value) VALUES
  ('CCCCCCCCCCCCCCCCBr', '-1.37% [at 19 µM] (inactive)'),
  ('C=CCCCCCCCCCCCCCCCC', '0.0327% [at 8.39 µM] (inactive)'),
  ('CN1CCN(c2c(F)cc3c(=O)c(C(=O)O)cn4c3c2OCN4C)CC1', '4.15% [at 19 µM] (inactive)'),
  ('CCCC(=O)O[C@]1(C(=O)COC(=O)CC)CC[C@H]2[C@@H]3CCC4=CC(=O)CC[C@]4(C)[C@H]3[C@@H](O)C[C@@]21C', '12.4% [at 19 µM] (inactive)');
